Data origin, for the record: the supplement of paper PMC6555819

system: RARa homodimer (NR concentration 270 nM); assay: PBM binding z-score (relative to random genomic background probes); higher = stronger binding; sequences stand for … in GC…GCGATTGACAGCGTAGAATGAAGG
Use 1 when the recorded PBM binding z-score is no lower than 0.4; use -1 when it is lower.

# entry sequence, answer label
records = [
    ("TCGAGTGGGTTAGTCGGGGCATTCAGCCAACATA", -1),
    ("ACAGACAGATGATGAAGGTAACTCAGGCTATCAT", 1),
    ("TCTTGTAGATCATCAGGTTAAGAAAGCTGGCCAA", 1),
    ("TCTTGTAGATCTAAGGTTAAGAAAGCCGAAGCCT", -1),
    ("AGAATGAGGTTACTAAGATCAGGGAATTGCGGTC", -1),
    ("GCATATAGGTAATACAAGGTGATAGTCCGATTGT", -1),
    ("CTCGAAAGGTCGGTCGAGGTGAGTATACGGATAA", -1),
]
